- target: KRas-mediated phosphorylation of ERK in A549 cells (Homo sapiens, UniProt P01116, G12S)
- Construct: pERK HTRF read-out
- Sequence (P01116 1-188 isoform P01116-2 G12S): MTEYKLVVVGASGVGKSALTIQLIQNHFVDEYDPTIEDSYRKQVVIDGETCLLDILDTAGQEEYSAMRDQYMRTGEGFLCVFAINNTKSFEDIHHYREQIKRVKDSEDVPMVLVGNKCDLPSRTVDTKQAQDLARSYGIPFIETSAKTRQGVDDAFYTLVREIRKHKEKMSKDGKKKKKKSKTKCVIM
- method.notes: Inhibition of KRas-mediated phosphorylation of ERK (HTRF), A549 cells
- Assay type: cell-based
- experimental.parameters: HTRF pERK, 3 h incubation

{"columns": ["compound", "target", "IC50"],
 "data": [
  ["N#Cc1c(N)sc2c(F)ccc(-c3c(Cl)cc4c(N5CCC(C(=O)N6CCOCC6)CC5)nc(OC[C@@]56CCCN5C[C@H](F)C6)nc4c3F)c12", "KRas-mediated phosphorylation of ERK in A549 cells (Homo sapiens, UniProt P01116, G12S)", "367 nM"],
  ["CC(=O)N(C)C(=O)CCCN(C)c1cc(O[C@@H](C)[C@@H]2CCCN2C)nc(-c2cc([C@]3(C)CCCc4sc(N)c(C#N)c43)sn2)n1", "KRas-mediated phosphorylation of ERK in A549 cells (Homo sapiens, UniProt P01116, G12S)", "> 10000 nM"],
  ["CCc1c(F)ccc2cc(O)cc(-c3ncc4c(N5CC6(C(=O)n7ccc(C)n7)CCCC5C6)nc(OC[C@@]56CCCN5C[C@H](F)C6)nc4c3F)c12 (stereo partly drawn)", "KRas-mediated phosphorylation of ERK in A549 cells (Homo sapiens, UniProt P01116, G12S)", "> 10000 nM"]
]}

---

- target: KRas WT (Homo sapiens, UniProt P01116)
- Construct: Biotinylated KRas (corresponding to amino acids 1-169, produced at Accelegan Inc.); biotin (biotinylated); purchased Accelegan Inc
- Sequence (P01116 1-169 isoform P01116-2): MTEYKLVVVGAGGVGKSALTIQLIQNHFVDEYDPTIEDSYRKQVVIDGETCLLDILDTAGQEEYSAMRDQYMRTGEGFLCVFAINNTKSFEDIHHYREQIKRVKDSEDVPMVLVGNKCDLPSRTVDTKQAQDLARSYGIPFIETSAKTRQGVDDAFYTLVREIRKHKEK
- method.notes: KRas binding assay, TR-FRET displacement of Cy5 labelled tracer
- experimental.parameters: 60-minute incubation at room temperature, 1% DMSO, pH 7.5

{"columns": ["compound", "IC50 / nM"],
 "data": [
  ["CCc1c(F)ccc2cc(O)cc(-c3ncc4c(N5CCC(C(=O)n6ccc(C)n6)CC5)nc(OC[C@@]56CCCN5C/C(=C\\F)C6)nc4c3F)c12 [Example 70]", 27],
  ["CCc1c(F)ccc2cc(O)cc(-c3ncc4c(N5CCC(C(=O)n6ccc(C(C)C)n6)CC5)nc(OC[C@@]56CCCN5C[C@H](F)C6)nc4c3F)c12 [Example 76]", 166],
  ["CCc1cc(O)cc2cccc(-c3c(Cl)cc4c(N5CCCC(C(=O)n6ccc(C)n6)CC5)nc(OC[C@@]56CCCN5C[C@H](F)C6)nc4c3F)c12 (stereo partly drawn) [Example 264]", 732]
]}

---

- target: KRas-mediated phosphorylation of ERK in H358 cells (Homo sapiens, UniProt P01116, G12C)
- Construct: pERK HTRF read-out
- Sequence (P01116 1-188 isoform P01116-2 G12C): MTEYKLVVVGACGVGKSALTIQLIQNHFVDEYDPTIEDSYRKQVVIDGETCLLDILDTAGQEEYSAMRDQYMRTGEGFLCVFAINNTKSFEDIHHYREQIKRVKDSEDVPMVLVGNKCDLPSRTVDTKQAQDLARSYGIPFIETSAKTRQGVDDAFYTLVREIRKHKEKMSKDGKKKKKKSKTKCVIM
- method.notes: Inhibition of KRas-mediated phosphorylation of ERK (HTRF), H358 cells
- Assay type: cell-based
- experimental.parameters: HTRF pERK, 3 h incubation

{"columns": ["molecule", "units.label", "IC50"],
 "data": [
  ["Cc1ccn(C(=O)C2CC3CN(c4nc(OC[C@@]56CCCN5C[C@H](F)C6)nc5c(F)c(-c6ccc(F)c7sc(N)c(C#N)c67)c(Cl)cc45)CC32)n1 (some centres unmarked)", "nM", 226],
  ["CCc1c(F)ccc2cc(O)cc(-c3ncc4c(N5CCC(C(=O)Nc6ccccn6)CC5)nc(OC[C@@]56CCCN5C[C@H](F)C6)nc4c3F)c12", "nM", 1760],
  ["Cc1ccn(C(=O)CCCCN(C)c2nc(OC[C@@]34CCCN3C[C@H](F)C4)nc3c(F)c(-c4ccc(F)c5sc(N)c(C#N)c45)c(Cl)cc23)n1", "nM", 432],
  ["Cc1ccn(C(=O)[C@@H]2CCCN(c3nc(OC[C@@]45CCCN4C[C@H](F)C5)nc4c(F)c(-c5ccc(F)c6sc(N)c(C#N)c56)c(Cl)cc34)CC2)n1 (atropisomer, axis not shown; (aS))", "nM", 50],
  ["CCc1c(F)ccc2cc(O)cc(-c3ncc4c(N5CCN(C(=O)n6nccn6)CC5)nc(OC[C@@]56CCCN5C[C@H](F)C6)nc4c3F)c12 (single isomer, unassigned)", "nM", 83],
  ["CCc1c(F)ccc2cc(O)cc(-c3ncc4c(N(C)CCC(=O)N(C)C(C)=O)nc(OC[C@@]56CCCN5C[C@H](F)C6)nc4c3F)c12", "nM", 494],
  ["CCc1c(F)ccc2cc(O)cc(-c3ncc4c(N(C)CCN(C)C(=O)n5cncn5)nc(OC[C@@]56CCCN5C[C@H](F)C6)nc4c3F)c12", "nM", 17],
  ["N#Cc1c(N)sc2c(F)ccc(-c3c(Cl)cc4c(N5CCC(C(=O)Oc6ccccc6Cl)CC5)nc(OC[C@@]56CCCN5C[C@H](F)C6)nc4c3F)c12", "nM", 16],
  ["CCc1c(F)ccc2cc(O)cc(-c3ncc4c(N5CCC(C(=O)n6ccc(N(C)C)n6)CC5)nc(OC[C@@]56CCCN5C[C@H](F)C6)nc4c3F)c12", "nM", 677],
  ["CCc1c(F)ccc2cc(O)cc(-c3ncc4c(N5CC[C@@H]6[C@H](C5)[C@@H]6C(=O)n5ccc(C)n5)nc(OC[C@@]56CCCN5C[C@H](F)C6)nc4c3F)c12", "nM", 2110],
  ["CCc1c(F)ccc2cc(O)cc(-c3ncc4c(N5CCC(C(=O)N(C)c6ccccn6)CC5)nc(OC[C@@]56CCCN5C[C@H](F)C6)nc4c3F)c12", "nM", 8390]
]}
